# Study Target: human 5-HT2C-INI (Homo sapiens, UniProt P28335)
# Sequence (P28335 33-458): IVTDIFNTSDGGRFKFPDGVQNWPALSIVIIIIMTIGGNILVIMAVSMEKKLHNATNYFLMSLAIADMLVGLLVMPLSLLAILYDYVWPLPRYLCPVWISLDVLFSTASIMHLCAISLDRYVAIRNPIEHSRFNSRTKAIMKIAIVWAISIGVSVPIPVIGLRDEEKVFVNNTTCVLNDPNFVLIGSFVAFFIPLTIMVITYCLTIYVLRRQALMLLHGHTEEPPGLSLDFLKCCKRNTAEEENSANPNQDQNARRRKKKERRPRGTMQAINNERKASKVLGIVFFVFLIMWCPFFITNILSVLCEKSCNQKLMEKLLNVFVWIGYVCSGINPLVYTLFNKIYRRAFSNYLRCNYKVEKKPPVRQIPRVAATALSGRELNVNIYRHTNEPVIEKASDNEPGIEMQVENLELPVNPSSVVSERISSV
# Assay Notes: Calcium flux (FLIPR) assay, human 5-HT2C-INI stably expressed in HEK-293 (Flp-In-293) cells
# Conditions: human 5-HT2C-INI in HEK-293 cells, FLIPR; normalized to 5-HT
Measurement Name: Emax, % 5-HT 5-HT2C

                                   compound     measurement_name  recorded_result
0  C=CCOc1ccc(F)c(Cl)c1C1CC1CN (single isomer, unassigned; (-)) [(−)-Example 53]  Emax, % 5-HT 5-HT2C     (89%) % 5-HT
1  CCOc1ccc(Cl)c(F)c1C1CC1CN (single isomer, unassigned; (+)) [(+)-Example 30]  Emax, % 5-HT 5-HT2C     (89%) % 5-HT
2  NCC1CC1c1cc(F)ccc1OCCF (single isomer, unassigned; (+)) [(+)-Example 10]  Emax, % 5-HT 5-HT2C     (89%) % 5-HT

====

# Study Target: rat 5-HT2C-INI (Rattus norvegicus)
# Construct: expressed in transfected cells; host or cells: rat PO1C cell line
# Sequence (P08909 33-460): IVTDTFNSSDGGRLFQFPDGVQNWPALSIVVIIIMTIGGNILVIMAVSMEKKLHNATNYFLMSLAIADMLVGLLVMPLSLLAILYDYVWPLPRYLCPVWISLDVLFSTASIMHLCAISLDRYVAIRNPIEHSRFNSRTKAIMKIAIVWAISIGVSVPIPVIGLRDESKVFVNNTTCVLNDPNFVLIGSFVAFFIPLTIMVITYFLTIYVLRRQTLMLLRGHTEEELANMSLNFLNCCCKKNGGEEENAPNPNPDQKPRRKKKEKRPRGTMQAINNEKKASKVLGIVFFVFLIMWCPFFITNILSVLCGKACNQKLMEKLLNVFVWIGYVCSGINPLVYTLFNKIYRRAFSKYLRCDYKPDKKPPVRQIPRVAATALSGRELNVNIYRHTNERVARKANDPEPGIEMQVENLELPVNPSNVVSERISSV
# Assay Notes: Calcium flux (FLIPR) assay, rat 5-HT2C-INI receptors expressed on PO1C cells
# Assay type: cell-based
# Conditions: data acquired with rat 5-HT2C-INI receptors expressed on PO1C cells; NA = no activity at 10 μM; read-out: EC50, nM 5-HT2C (footnote a)
Just a reminder that ties go to not satisfied: only EC50 strictly below 600 nM counts as satisfied.

                                   compound  assigned_label
0  NCC1CC1c1cc(Cl)ccc1OCc1ccccc1 (single isomer, unassigned; (-)) [(−)-Example 28]   not satisfied
1  CC(C)Oc1cc(F)c(Cl)cc1C1CC1CN (single isomer, unassigned; (+)) [(+)-Example 3]       satisfied
2  NCC1CC1c1cc(Cl)ccc1Oc1ccccc1 (single isomer, unassigned; (+)) [(+)-Example 27]   not satisfied
3  NCC1CC1c1cc(Cl)ccc1Oc1ccccc1 (single isomer, unassigned; (-)) [(−)-Example 27]   not satisfied
4  NCC1CC1c1cc(Cl)ccc1OCC(F)(F)F (single isomer, unassigned; (+)) [(+)-Example 22]       satisfied

====

# Study Target: 5-HT2B (Homo sapiens, UniProt P41595)
# Sequence (P41595 whole entry): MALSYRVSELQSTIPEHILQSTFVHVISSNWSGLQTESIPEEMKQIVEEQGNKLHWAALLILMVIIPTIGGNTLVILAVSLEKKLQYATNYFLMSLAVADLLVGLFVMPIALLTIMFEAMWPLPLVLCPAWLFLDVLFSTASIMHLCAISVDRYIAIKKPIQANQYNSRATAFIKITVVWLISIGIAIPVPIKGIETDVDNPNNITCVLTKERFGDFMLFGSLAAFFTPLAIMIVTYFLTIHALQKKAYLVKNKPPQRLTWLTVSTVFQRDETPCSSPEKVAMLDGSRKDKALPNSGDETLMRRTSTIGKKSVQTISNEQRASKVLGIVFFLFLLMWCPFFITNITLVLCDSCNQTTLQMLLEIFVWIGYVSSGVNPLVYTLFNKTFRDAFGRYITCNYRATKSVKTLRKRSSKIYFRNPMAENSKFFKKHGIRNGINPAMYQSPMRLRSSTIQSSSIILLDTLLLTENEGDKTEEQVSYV
# Assay Notes: Calcium flux (FLIPR) assay, human 5-HT2B stably expressed in HEK-293 (Flp-In-293) cells
# Conditions: human 5-HT2B in HEK-293 cells, normalized to 5-HT
Measurement Name: Emax, % 5-HT 5-HT2B

>>> print(df.to_string())
                                    compound     measurement_name  recorded_result
 0  COc1cc(F)c(Cl)cc1[C@@H]1C[C@H]1CN (single isomer, unassigned) [(+)-Example 1]  Emax, % 5-HT 5-HT2B     (59%) % 5-HT
 1  CCCOc1ccc(F)cc1C1CC1CN (single isomer, unassigned; (+)) [(+)-Example 7]  Emax, % 5-HT 5-HT2B     (33%) % 5-HT
 2  NCC1CC1c1cc(Cl)ccc1OCC(F)F (single isomer, unassigned; (+)) [(+)-Example 21]  Emax, % 5-HT 5-HT2B     (27%) % 5-HT
 3  COc1cc(F)c(F)cc1[C@@H]1C[C@H]1CN (single isomer, unassigned) [(−)-Example 40]  Emax, % 5-HT 5-HT2B     (59%) % 5-HT
 4  C#CCOc1cc(F)c(Cl)cc1C1CC1CN (single isomer, unassigned; (-)) [(−)-Example 6]  Emax, % 5-HT 5-HT2B     (33%) % 5-HT
 5  C=C(C)COc1ccc(Cl)cc1C1CC1CN (single isomer, unassigned; (-)) [(−)-Example 24]  Emax, % 5-HT 5-HT2B     (39%) % 5-HT
 6  COc1cc(F)c(Cl)cc1[C@@H]1C[C@H]1CN (single isomer, unassigned) [(−)-Example 1]  Emax, % 5-HT 5-HT2B     (44%) % 5-HT
 7  CCOc1ccc(Cl)cc1C1CC1CN (single isomer, unassigned; (-)) [(−)-Example 11]  Emax, % 5-HT 5-HT2B     (26%) % 5-HT
 8  C=C(F)COc1ccc(Cl)cc1C1CC1CN (single isomer, unassigned; (+)) [(+)-Example 25]  Emax, % 5-HT 5-HT2B     (27%) % 5-HT
 9  C=CCOc1ccc(F)c(F)c1C1CC1CN (single isomer, unassigned; (-)) [(−)-Example 49]  Emax, % 5-HT 5-HT2B     (26%) % 5-HT
10  CCCOc1ccc(F)c(F)c1C1CC1CN (single isomer, unassigned; (+)) [(+)-Example 48]  Emax, % 5-HT 5-HT2B     (39%) % 5-HT
11  C=CCOc1cc(F)c(Cl)cc1C1CC1CN (single isomer, unassigned; (+)) [(+)-Example 5]  Emax, % 5-HT 5-HT2B     (44%) % 5-HT

====

Readings of EC50 for the listed molecules
# Study Target: human 5-HT2C-INI (Homo sapiens)
# Assay Notes: Calcium flux (FLIPR) assay, human 5-HT2C-INI stably expressed in HEK-293 (Flp-In-293) cells
# Conditions: EC50, nM 5-HT2C, human 5-HT2C-INI in HEK-293 cells, FLIPR; NA = no activity at 10 μM
Measurement Name: EC50 (nM)

>>> df
                                   molecule  result_units  recorded_result
0  C=C(F)COc1ccc(F)cc1C1CC1CN (single isomer, unassigned; (-)) [(−)-Example 9]            nM              985
1  NCC1CC1c1cc(Cl)ccc1OCCCF (single isomer, unassigned; (+)) [(+)-Example 20]            nM              206
2  C=CCOc1ccc(F)cc1C1CC1CN (single isomer, unassigned; (+)) [(+)-Example 8]            nM              4.2
3  NCC1CC1c1c(OCCF)ccc(F)c1F (single isomer, unassigned; (+)) [(+)-Example 47]            nM               25
4  COc1cc(F)c(Cl)cc1[C@@H]1C[C@H]1CN (single isomer, unassigned) [(−)-Example 1]            nM               16
5  C=CCOc1ccc(F)cc1C1CC1CN (single isomer, unassigned; (-)) [(−)-Example 8]            nM              157
6  COCCOc1ccc(Cl)cc1C1CC1CN (single isomer, unassigned; (-)) [(−)-Example 17]            nM              667
7  CSCCOc1ccc(Cl)cc1C1CC1CN (single isomer, unassigned; (+)) [(+)-Example 18]            nM              244

====

# Study Target: 5-HT2B (Homo sapiens)
# Assay Notes: Calcium flux (FLIPR) assay, human 5-HT2B stably expressed in HEK-293 (Flp-In-293) cells
# Conditions: EC50, nM 5-HT2B, human 5-HT2B in HEK-293 cells, NA = no activity at 10 μM
Just a reminder that ties go to n: only EC50 strictly below 700 nM counts as y.

>>> df
                                    molecule           study_target  assigned_label
 0  C=C(C)COc1ccc(Cl)cc1C1CC1CN (single isomer, unassigned; (-)) [(−)-Example 24]  5-HT2B (Homo sapiens)               n
 1  CCCOc1cc(F)c(F)cc1C1CC1CN (single isomer, unassigned; (-)) [(−)-Example 43]  5-HT2B (Homo sapiens)               n
 2  NCC1CC1c1cc(Cl)ccc1OCCF (single isomer, unassigned; (-)) [(−)-Example 19]  5-HT2B (Homo sapiens)               n
 3  CCOc1ccc(Cl)cc1C1CC1CN (single isomer, unassigned; (+)) [(+)-Example 11]  5-HT2B (Homo sapiens)               y
 4  CCOc1ccc(F)c(F)c1C1CC1CN (single isomer, unassigned; (-)) [(−)-Example 46]  5-HT2B (Homo sapiens)               n
 5  COc1cc(F)c(Cl)cc1[C@@H]1C[C@H]1CN (single isomer, unassigned) [(−)-Example 1]  5-HT2B (Homo sapiens)               y
 6  C=CCOc1ccc(F)c(F)c1C1CC1CN (single isomer, unassigned; (-)) [(−)-Example 49]  5-HT2B (Homo sapiens)               n
 7  CCOc1ccc(F)c(F)c1C1CC1CN (single isomer, unassigned; (+)) [(+)-Example 46]  5-HT2B (Homo sapiens)               y
 8  CCOc1cc(F)c(Cl)cc1C1CC1CN (single isomer, unassigned; (+)) [(+)-Example 2]  5-HT2B (Homo sapiens)               y
 9  CCCOc1cc(F)c(F)cc1C1CC1CN (single isomer, unassigned; (+)) [(+)-Example 43]  5-HT2B (Homo sapiens)               n
10  CCCOc1ccc(Cl)cc1C1CC1CN (single isomer, unassigned; (+)) [(+)-Example 12]  5-HT2B (Homo sapiens)               n
11  C=CCOc1ccc(Cl)cc1C1CC1CN (single isomer, unassigned; (+)) [(+)-Example 23]  5-HT2B (Homo sapiens)               n
12  C#CCOc1cc(F)c(Cl)cc1C1CC1CN (single isomer, unassigned; (-)) [(−)-Example 6]  5-HT2B (Homo sapiens)               n
13  CCOc1ccc(F)c(Cl)c1C1CC1CN (single isomer, unassigned; (-)) [(−)-Example 51]  5-HT2B (Homo sapiens)               n
14  CCCOc1ccc(F)cc1C1CC1CN (single isomer, unassigned; (-)) [(−)-Example 7]  5-HT2B (Homo sapiens)               n
15  COc1ccc(Cl)c(F)c1[C@@H]1C[C@H]1CN (single isomer, unassigned) [(+)-Example 29]  5-HT2B (Homo sapiens)               y
16  NCC1CC1c1cc(Cl)ccc1OCCCF (single isomer, unassigned; (-)) [(−)-Example 20]  5-HT2B (Homo sapiens)               n
17  CCOc1ccc(Cl)c(Cl)c1C1CC1CN (single isomer, unassigned; (+)) [(+)-Example 37]  5-HT2B (Homo sapiens)               n
18  NCC1CC1c1cc(Cl)c(F)cc1OCCF (single isomer, unassigned; (+)) [(+)-Example 4]  5-HT2B (Homo sapiens)               y
19  C#CCOc1cc(F)c(Cl)cc1C1CC1CN (single isomer, unassigned; (+)) [(+)-Example 6]  5-HT2B (Homo sapiens)               n
20  CC(C)Oc1ccc(Cl)cc1C1CC1CN (single isomer, unassigned; (+)) [(+)-Example 14]  5-HT2B (Homo sapiens)               n
21  C=CCOc1ccc(F)c(F)c1C1CC1CN (single isomer, unassigned; (+)) [(+)-Example 49]  5-HT2B (Homo sapiens)               n
22  COCCOc1ccc(Cl)cc1C1CC1CN (single isomer, unassigned; (-)) [(−)-Example 17]  5-HT2B (Homo sapiens)               n
23  CCOc1cc(F)c(F)cc1C1CC1CN (single isomer, unassigned; (+)) [(+)-Example 41]  5-HT2B (Homo sapiens)               y
